assay: Minipig B/P (brain disposition); type: in vivo, female Gottingen minipigs; conditions: female, Gottingen, plasma, IV bolus 0.28 mg/kg + IV infusion 0.60 mg/kg, time point 2.00 h, mean ± stdev, n = 3, read-out: CTotal, plasma
OBSERVABLE: concentration at 2 h (ng/mL)

[[record]]
compound = "[2H]C([2H])([2H])c1c2c(nn1C1CCOCC1)OCCCn1nc(Cl)c3cnc(nc31)N2 [Example 13]"
value_reported = 93


###

Assay: Free fraction in plasma (equilibrium dialysis)
Format: in vitro ADME, male Sprague-Dawley rat
Conditions: rat plasma, 1 μM, 5 h at 37° C.
Procedure: The free fractions in male Sprague-Dawley rat or female Gottingen minipig plasma (fuplasma) and rat brain homogenate (fubrain) were determined by equilibrium dialysis using 96-well HTD-dialysis plates with dialysis membranes (molecular weight cut off 12-14 KDa). […] After centrifugation (20 min, 3200 g, 4° C.) the supernatants were diluted with appropriate volumes of water and compound concentrations were quantified by LC/MS-MS against matrix matched calibration standards. […]
OBSERVABLE: fuplasma (% free)

[[record]]
molecule = "Cc1c2c(nn1[C@@H]1CCOC[C@H]1F)OCCCn1nc(Cl)c3cnc(nc31)N2 (single isomer, unassigned)"
observable = "fuplasma (% free)"
unit_name = "% free"
value_reported = 24.9

[[record]]
molecule = "Cc1c2c(nn1[C@H]1CCOC[C@]1(C)F)OCCCn1nc(Cl)c3cnc(nc31)N2 (single isomer, unassigned)"
observable = "fuplasma (% free)"
unit_name = "% free"
value_reported = 24.8

[[record]]
molecule = "Cc1c2c(nn1[C@H]1CCCOCC1)OCCCn1nc(Cl)c3cnc(nc31)N2 (single isomer, unassigned)"
observable = "fuplasma (% free)"
unit_name = "% free"
value_reported = 26.5

[[record]]
molecule = "Cc1c2c(nn1[C@H]1C[C@@H](C)O[C@@H](C)C1)OCCCn1nc(Cl)c3cnc(nc31)N2"
observable = "fuplasma (% free)"
unit_name = "% free"
value_reported = 25.2

[[record]]
molecule = "Cc1c2c(nn1[C@@H]1CCO[C@H](C)C1)OCCCn1nc(Cl)c3cnc(nc31)N2 (single isomer, unassigned) [Example 19]"
observable = "fuplasma (% free)"
unit_name = "% free"
value_reported = 24.0

[[record]]
molecule = "Cc1c2c(nn1[C@@H]1C[C@H]3CC[C@@H](C1)O3)OCCCn1nc(Cl)c3cnc(nc31)N2"
observable = "fuplasma (% free)"
unit_name = "% free"
value_reported = 25.5

[[record]]
molecule = "Cc1c2c(nn1C1CCOCC1)OCCCn1nc(Br)c3cnc(nc31)N2"
observable = "fuplasma (% free)"
unit_name = "% free"
value_reported = 34.3


###

Kp uu at 1 h overview
Assay: Rat B/P (brain disposition)
Assay type: in vivo, male Sprague-Dawley rats
Conditions: male, Sprague-Dawley, brain/plasma, oral gavage 5 mg/kg, time point 1.0 h, fubrain from brain homogenate
Protocol: Brain disposition was evaluated for each compound in male Sprague-Dawley rats (n=3, standard body weight). […] Concentrations of test compound in plasma and brain were quantified against matrix matched calibration standards. The total plasma and brain concentration data are presented in Table 7 alongside the calculated brain Kp (total brain concentration:total plasma concentration ratio).
OBSERVABLE: Kp uu at 1 h

[[record]]
compound = "Cc1c2c(nn1[C@H]1CCCCOC1)OCCCn1nc(Cl)c3cnc(nc31)N2 (single isomer, unassigned) [Example 27]"
observable = "Kp uu at 1 h"
value_reported = 0.52

[[record]]
compound = "Cc1c2c(nn1[C@@H]1CCOC3(CC3)C1)OCCCn1nc(Cl)c3cnc(nc31)N2 (single isomer, unassigned) [Example 53]"
observable = "Kp uu at 1 h"
value_reported = 0.65

[[record]]
compound = "Cc1c2c(nn1[C@H]1CCCOCC1)OCCCn1nc(Cl)c3cnc(nc31)N2 (single isomer, unassigned) [Example 30]"
observable = "Kp uu at 1 h"
value_reported = 0.73

[[record]]
compound = "Cc1c2c(nn1C13CC(C#N)(C1)C3)OCCCn1nc(Cl)c3cnc(nc31)N2 [Example 33]"
observable = "Kp uu at 1 h"
value_reported = 0.4


###

assay: Rat B/P (brain disposition); format: in vivo, male Sprague-Dawley rats; settings: male, Sprague-Dawley, brain/plasma, oral gavage 3 mg/kg, time point 1.0 h, mean ± stdev, n = 3
OBSERVABLE: Kp at 1 h

[[record]]
compound_string = "[2H]C([2H])([2H])c1c2c(nn1C1CCOCC1)OCCCn1nc(Cl)c3cnc(nc31)N2"
observable = "Kp at 1 h"
value_reported = 1.74


###

test: Minipig B/P (brain disposition); type: in vivo, female Gottingen minipigs; settings: female, Gottingen, plasma, IV bolus 0.28 mg/kg + IV infusion 0.60 mg/kg, time point 1.50 h, mean ± stdev, n = 3, read-out: CTotal, plasma
OBSERVABLE: concentration at 1.5 h (ng/mL)

[[record]]
compound_string = "[2H]C([2H])([2H])c1c2c(nn1C1CCOCC1)OCCCn1nc(Cl)c3cnc(nc31)N2"
value_reported = 106


###

assay: Rat B/P (brain disposition); format: in vivo, male Sprague-Dawley rats; conditions: male, Sprague-Dawley, plasma, oral gavage 5 mg/kg, time point 1.0 h, mean ± stdev, n = 3, read-out: Total plasma concentration
OBSERVABLE: concentration at 1 h (ng/mL)

[[record]]
compound = "Cc1c2c(nn1[C@@H]1CCOC3(CC3)C1)OCCCn1nc(Cl)c3cnc(nc31)N2 (single isomer, unassigned)"
observable = "concentration at 1 h"
value_reported = 203

[[record]]
compound = "Cc1c2c(nn1C13CC(C#N)(C1)C3)OCCCn1nc(Cl)c3cnc(nc31)N2"
observable = "concentration at 1 h"
value_reported = 43

[[record]]
compound = "Cc1c2c(nn1[C@H]1CCCOCC1)OCCCn1nc(Cl)c3cnc(nc31)N2 (single isomer, unassigned)"
observable = "concentration at 1 h"
value_reported = 210

[[record]]
compound = "Cc1c2c(nn1[C@H]1CCCCOC1)OCCCn1nc(Cl)c3cnc(nc31)N2 (single isomer, unassigned)"
observable = "concentration at 1 h"
value_reported = 273


###

target: LRRK2 G2019S (Homo sapiens, UniProt Q5S007, G2019S); assay: LRRK2 G2019S kinase activity assay (LanthaScreen TR-FRET); settings: 250 pM LRRK2 G2019S, 1.3 mM ATP, 3 h at 30° C.; n≥2 tests
Sequence (Q5S007 970-2527 G2019S): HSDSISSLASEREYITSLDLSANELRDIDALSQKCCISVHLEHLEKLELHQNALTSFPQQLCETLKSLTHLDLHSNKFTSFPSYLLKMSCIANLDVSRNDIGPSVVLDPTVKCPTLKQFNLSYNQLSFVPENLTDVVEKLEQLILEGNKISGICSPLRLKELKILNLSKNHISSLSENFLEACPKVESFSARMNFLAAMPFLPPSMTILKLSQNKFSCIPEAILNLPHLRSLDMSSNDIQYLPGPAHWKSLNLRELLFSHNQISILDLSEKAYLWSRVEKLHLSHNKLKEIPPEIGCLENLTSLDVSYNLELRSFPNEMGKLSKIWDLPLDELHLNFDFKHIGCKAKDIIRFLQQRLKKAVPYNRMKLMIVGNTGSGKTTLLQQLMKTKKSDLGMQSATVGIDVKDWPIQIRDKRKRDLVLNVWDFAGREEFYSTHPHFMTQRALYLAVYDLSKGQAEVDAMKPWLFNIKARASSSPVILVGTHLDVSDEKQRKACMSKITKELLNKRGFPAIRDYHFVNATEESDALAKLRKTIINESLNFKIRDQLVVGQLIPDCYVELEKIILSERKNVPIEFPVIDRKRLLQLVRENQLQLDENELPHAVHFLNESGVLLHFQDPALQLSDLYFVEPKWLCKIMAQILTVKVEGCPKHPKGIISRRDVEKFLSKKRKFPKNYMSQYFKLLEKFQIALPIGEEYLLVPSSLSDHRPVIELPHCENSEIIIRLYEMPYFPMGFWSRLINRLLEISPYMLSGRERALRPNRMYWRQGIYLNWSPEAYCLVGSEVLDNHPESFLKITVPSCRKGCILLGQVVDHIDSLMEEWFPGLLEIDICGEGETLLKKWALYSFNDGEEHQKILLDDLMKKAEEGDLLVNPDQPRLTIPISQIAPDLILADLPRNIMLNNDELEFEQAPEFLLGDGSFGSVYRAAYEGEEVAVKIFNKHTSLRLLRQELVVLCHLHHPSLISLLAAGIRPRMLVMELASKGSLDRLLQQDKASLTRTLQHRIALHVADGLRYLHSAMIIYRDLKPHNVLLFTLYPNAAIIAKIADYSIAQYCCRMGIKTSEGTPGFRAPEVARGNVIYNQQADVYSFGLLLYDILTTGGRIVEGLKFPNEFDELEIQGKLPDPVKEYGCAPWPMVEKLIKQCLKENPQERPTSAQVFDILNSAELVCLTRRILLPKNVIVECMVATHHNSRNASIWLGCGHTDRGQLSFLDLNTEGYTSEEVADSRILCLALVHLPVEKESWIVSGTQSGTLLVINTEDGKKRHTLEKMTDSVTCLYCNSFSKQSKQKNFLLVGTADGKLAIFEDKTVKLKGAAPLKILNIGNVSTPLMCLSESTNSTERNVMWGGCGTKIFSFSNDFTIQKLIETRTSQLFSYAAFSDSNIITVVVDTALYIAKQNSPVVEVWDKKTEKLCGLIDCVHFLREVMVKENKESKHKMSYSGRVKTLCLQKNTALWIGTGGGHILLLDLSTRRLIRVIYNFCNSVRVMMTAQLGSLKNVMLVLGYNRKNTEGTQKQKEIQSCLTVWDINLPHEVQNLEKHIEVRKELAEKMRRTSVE
Measured IC50 values are reported for all entries that follow.
OBSERVABLE: IC50 (nM)

[[record]]
compound = "Cc1c2c(nn1[C@H]1CCCCOC1)OCCCn1nc(Cl)c3cnc(nc31)N2 (single isomer, unassigned) [Example 28]"
unit_name = "nM"
value_reported = 5.3

[[record]]
compound = "Cc1c2c(nn1CC1CCOCC1)OCCCn1nc(Cl)c3cnc(nc31)N2"
unit_name = "nM"
value_reported = 4.7

[[record]]
compound = "Cc1c2c(nn1[C@H]1CCOC[C@]1(C)F)OCCCn1nc(Cl)c3cnc(nc31)N2 (single isomer, unassigned) [Example 48]"
unit_name = "nM"
value_reported = 18

[[record]]
compound = "Cc1c2c(nn1[C@H]1C[C@@H](C)O[C@@H](C)C1)OCCCn1nc(Cl)c3cnc(nc31)N2"
unit_name = "nM"
value_reported = 6.4

[[record]]
compound = "Cc1c2c(nn1[C@@H]1CCOC[C@@H]1C)OCCCn1nc(Cl)c3cnc(nc31)N2 (single isomer, unassigned) [Example 22]"
unit_name = "nM"
value_reported = 3.5

[[record]]
compound = "Cc1c2c(nn1C1CCC(F)(F)CC1)OCCCn1nc(Cl)c3cnc(nc31)N2"
unit_name = "nM"
value_reported = 5.9

[[record]]
compound = "[2H]C([2H])([2H])c1c2c(nn1[C@H]1CC[C@H](OC)CC1)OCCCn1nc(Cl)c3cnc(nc31)N2"
unit_name = "nM"
value_reported = 5.3


###

assay: Minipig B/P (brain disposition); format: in vivo, female Gottingen minipigs; settings: female, Gottingen, plasma, IV bolus 0.28 mg/kg + IV infusion 0.60 mg/kg, time point 1.83 h, mean ± stdev, n = 3, read-out: CTotal, plasma
OBSERVABLE: concentration at 1.83 h

[[record]]
compound_string = "[2H]C([2H])([2H])c1c2c(nn1C1CCOCC1)OCCCn1nc(Cl)c3cnc(nc31)N2"
value_reported = "105 ng/mL"


###

test: Rat B/P (brain disposition); type: in vivo, male Sprague-Dawley rats; conditions: male, Sprague-Dawley, brain, oral gavage 10 mg/kg, time point 1.0 h, mean ± stdev, n = 3, read-out: Total brain concentration
OBSERVABLE: concentration at 1 h

[[record]]
compound = "Cc1c2c(nn1[C@@H]1CCO[C@H](C)C1)OCCCn1nc(Cl)c3cnc(nc31)N2 (single isomer, unassigned)"
value_reported = "897 ng/g"

[[record]]
compound = "Clc1nn2c3nc(ncc13)Nc1c(nn(C3CCOCC3)c1C1CC1)OCCC2"
value_reported = "502 ng/g"

[[record]]
compound = "Cc1c2c(nn1C1(C)COC1)OCCCn1nc(Cl)c3cnc(nc31)N2"
value_reported = "421 ng/g"

[[record]]
compound = "CCc1c2c(nn1C1CCOCC1)OCCCn1nc(Cl)c3cnc(nc31)N2"
value_reported = "1150 ng/g"

[[record]]
compound = "Cc1c2c(nn1[C@H]1CC[C@H](F)CC1)OCCCn1nc(Cl)c3cnc(nc31)N2"
value_reported = "110 ng/g"

[[record]]
compound = "Cc1c2c(nn1[C@H]1CCCOC1)OCCCn1nc(Cl)c3cnc(nc31)N2 (single isomer, unassigned)"
value_reported = "1360 ng/g"

[[record]]
compound = "Cc1c2c(nn1[C@@H]1CCOC[C@H]1F)OCCCn1nc(Cl)c3cnc(nc31)N2 (single isomer, unassigned)"
value_reported = "215 ng/g"

[[record]]
compound = "Cc1c2c(nn1C1CCOCC1)OCCCn1nc(Br)c3cnc(nc31)N2"
value_reported = "1460 ng/g"

[[record]]
compound = "Cc1c2c(nn1C1CCOCC1)OCCCn1nc(C3CC3)c3cnc(nc31)N2"
value_reported = "949 ng/g"

[[record]]
compound = "[2H]C([2H])([2H])c1c2c(nn1C1CCOCC1)OCCCn1nc(Cl)c3cnc(nc31)N2"
value_reported = "2030 ng/g"

[[record]]
compound = "Cc1c2c(nn1C1CCOCC1)OCCCn1nc(C(F)(F)F)c3cnc(nc31)N2"
value_reported = "744 ng/g"


Each recorded value in this set is attributed to patent US11780851B2.
